Molecular target: Mer (Homo sapiens)
Construct: purchased Life Technologies
Sequence (Q12866 21-999): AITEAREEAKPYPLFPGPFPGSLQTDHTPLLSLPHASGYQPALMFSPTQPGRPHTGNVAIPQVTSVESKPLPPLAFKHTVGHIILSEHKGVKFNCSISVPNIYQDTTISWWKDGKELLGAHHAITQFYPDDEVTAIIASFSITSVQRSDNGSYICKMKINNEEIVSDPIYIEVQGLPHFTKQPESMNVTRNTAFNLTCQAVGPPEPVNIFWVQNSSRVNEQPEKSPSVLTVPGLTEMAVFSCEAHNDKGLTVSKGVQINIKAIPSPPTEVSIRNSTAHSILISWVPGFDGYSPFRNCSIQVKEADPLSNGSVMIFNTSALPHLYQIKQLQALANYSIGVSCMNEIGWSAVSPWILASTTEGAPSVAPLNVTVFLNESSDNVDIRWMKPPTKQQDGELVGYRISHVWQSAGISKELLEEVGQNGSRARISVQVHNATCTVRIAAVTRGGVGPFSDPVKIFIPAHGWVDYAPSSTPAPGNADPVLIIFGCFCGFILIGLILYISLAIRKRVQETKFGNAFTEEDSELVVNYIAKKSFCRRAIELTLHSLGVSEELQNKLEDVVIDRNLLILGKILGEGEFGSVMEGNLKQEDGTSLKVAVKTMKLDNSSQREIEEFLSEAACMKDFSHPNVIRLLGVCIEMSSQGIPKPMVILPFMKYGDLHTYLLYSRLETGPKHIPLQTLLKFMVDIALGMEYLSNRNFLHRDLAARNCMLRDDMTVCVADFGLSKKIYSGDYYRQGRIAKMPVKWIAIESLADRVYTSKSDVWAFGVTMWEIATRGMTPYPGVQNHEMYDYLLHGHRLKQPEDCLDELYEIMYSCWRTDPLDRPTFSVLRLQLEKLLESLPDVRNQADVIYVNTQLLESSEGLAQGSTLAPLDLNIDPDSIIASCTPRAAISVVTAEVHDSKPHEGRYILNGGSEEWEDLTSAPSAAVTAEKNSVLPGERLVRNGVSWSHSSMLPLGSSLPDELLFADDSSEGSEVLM
Test: LanthaScreen Eu kinase binding assay for Mer
Conditions: read-out: Mer kinase binding activity (Kd)
assay-readout: Kd

molecule="COc1cc2nccc(Oc3ccc(NC(=O)c4nn(CCO)cc4OCC(F)(F)F)c(F)c3)c2cc1OC [Compound 46]" target="Mer (Homo sapiens)" result="< 100 nM"
molecule="COc1cc2nccc(Oc3ccc(NC(=O)c4nn(CCCN)cc4OCC(F)(F)F)nc3)c2cc1OC [Compound 68]" target="Mer (Homo sapiens)" result="< 100 nM"
molecule="COc1cc2nccc(Oc3ccc(NC(=O)c4nn(CCN)cc4OCC(F)(F)F)cc3F)c2cc1OC [Compound 79]" target="Mer (Homo sapiens)" result="< 100 nM"
molecule="CCCn1cc(OCC(F)(F)F)c(C(=O)Nc2ccc(Oc3ccnc4cc(OC)c(OC)cc34)cc2F)n1 [Compound 28]" target="Mer (Homo sapiens)" result="< 100 nM"
molecule="COc1cc2nccc(Oc3ccc(NC(=O)c4nn(C5CCNC5)cc4OCC(F)(F)F)cn3)c2cc1OC (centres unmarked) [Compound 132]" target="Mer (Homo sapiens)" result="≥ 500 nM"
molecule="COc1cc2nccc(Oc3ccc(NC(=O)c4nn(C5CC5)cc4NCC(F)(F)F)nn3)c2cc1OC [Compound 148]" target="Mer (Homo sapiens)" result="< 100 nM"

Input line: # return recorded Kd for entry COc1cc2nccc(Oc3ccc(NC(=O)c4sc(C5CC5)cc4OCC(F)(F)F)nc3)c2cc1OC [Compound 179]
Output line: 100 to 500 nM

Input line: Return the recorded Kd value; entry: COc1cc2nccc(Oc3ccc(NC(=O)c4nn(CCN)cc4OCC(F)(F)F)cc3)c2cc1OC [Compound 88]
Output line: 100 to 500 nM
